conditionLabel: in acetone, 293.15 K

>  <molecule>
CNC(=O)NC

>  <solubility (mole fraction)>
0.152

$$$$

* * *

conditionLabel: in isopropanol, 298.15 K

>  <molecule>
CNC(=O)NC

>  <solubility (mole fraction)>
0.372

$$$$

* * *

conditionLabel: in water, 323.15 K
recordedMetric: solubility (mole fraction)

>  <molecule>
CNC(=O)NC

>  <recordedMetric>
solubility (mole fraction)

>  <reportedValue>
0.57

$$$$

* * *

conditionLabel: in n-butyl acetate, 313.15 K
recordedMetric: solubility (mole fraction)

>  <molecule>
CNC(=O)NC

>  <reportedValue>
0.0834

$$$$

* * *

conditionLabel: in ethyl acetate, 288.15 K

>  <molecule>
CNC(=O)NC

>  <solubility (mole fraction)>
0.0302

$$$$

* * *

conditionLabel: in water, 328.15 K

>  <molecule>
CNC(=O)NC

>  <solubility (mole fraction)>
0.601

$$$$

* * *

conditionLabel: in acetone, 313.15 K
recordedMetric: solubility (mole fraction)

>  <molecule>
CNC(=O)NC

>  <reportedValue>
0.261

$$$$

* * *

conditionLabel: in acetonitrile, 328.15 K
recordedMetric: solubility (mole fraction)

>  <molecule>
CNC(=O)NC

>  <recordedMetric>
solubility (mole fraction)

>  <reportedValue>
0.363

$$$$

* * *

conditionLabel: in ethyl acetate, 298.15 K
recordedMetric: solubility (mole fraction)

>  <molecule>
CNC(=O)NC

>  <reportedValue>
0.0608

$$$$

* * *

conditionLabel: in acetonitrile, 318.15 K

>  <molecule>
CNC(=O)NC

>  <solubility (mole fraction)>
0.282

$$$$

* * *

conditionLabel: in sec-butanol, 298.15 K
recordedMetric: solubility (mole fraction)

>  <molecule>
CNC(=O)NC

>  <recordedMetric>
solubility (mole fraction)

>  <reportedValue>
0.381

$$$$

* * *

conditionLabel: in ethyl acetate, 313.15 K
recordedMetric: solubility (mole fraction)

>  <molecule>
CNC(=O)NC

>  <recordedMetric>
solubility (mole fraction)

>  <reportedValue>
0.14

$$$$

* * *

conditionLabel: in n-butyl acetate, 318.15 K

>  <molecule>
CNC(=O)NC

>  <solubility (mole fraction)>
0.111

$$$$

* * *

conditionLabel: in water, 318.15 K

>  <molecule>
CNC(=O)NC

>  <solubility (mole fraction)>
0.533

$$$$

* * *

conditionLabel: in sec-butanol, 308.15 K
recordedMetric: solubility (mole fraction)

>  <molecule>
CNC(=O)NC

>  <recordedMetric>
solubility (mole fraction)

>  <reportedValue>
0.438

$$$$

* * *

conditionLabel: in water, 313.15 K

>  <molecule>
CNC(=O)NC

>  <solubility (mole fraction)>
0.494

$$$$

* * *

conditionLabel: in isopropanol, 293.15 K
recordedMetric: solubility (mole fraction)

>  <molecule>
CNC(=O)NC

>  <reportedValue>
0.352

$$$$

* * *

conditionLabel: in ethyl acetate, 323.15 K

>  <molecule>
CNC(=O)NC

>  <solubility (mole fraction)>
0.22

$$$$

* * *

conditionLabel: in water, 298.15 K

>  <molecule>
CNC(=O)NC

>  <solubility (mole fraction)>
0.405

$$$$

* * *

conditionLabel: in water, 288.15 K
recordedMetric: solubility (mole fraction)

>  <molecule>
CNC(=O)NC

>  <recordedMetric>
solubility (mole fraction)

>  <reportedValue>
0.362

$$$$

* * *

conditionLabel: in acetone, 318.15 K
recordedMetric: solubility (mole fraction)

>  <molecule>
CNC(=O)NC

>  <recordedMetric>
solubility (mole fraction)

>  <reportedValue>
0.301

$$$$
